target: T1, His-tagged PD-L1 ECD protein (ACROBiosystems) (human, UniProt Q9NZQ7 19-238); experiment: SPR, supernatant IgG captured, PD-L1-His analyte
T1 construct: Bought protein; also called PD-L1-His; PD-L1/His; not shown: His tag
T1 sequence (Q9NZQ7 19-238): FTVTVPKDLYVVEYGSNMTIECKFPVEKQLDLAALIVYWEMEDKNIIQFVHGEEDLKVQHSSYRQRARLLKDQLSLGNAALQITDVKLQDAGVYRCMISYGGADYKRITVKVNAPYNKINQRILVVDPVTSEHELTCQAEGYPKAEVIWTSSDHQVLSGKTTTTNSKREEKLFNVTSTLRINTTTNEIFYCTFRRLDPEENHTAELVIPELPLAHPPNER
QUANTITY_MEASURED: Kd (nM)

* 53C1_VH.M2-VL (antibody, human IgG1, kappa, N297A, V domains shown, Chimeric mutant, VH N57A in the entry; human IgG1 effector-less Fc, kappa) VH: QVQLQQSGNELARPGASVRLSCKASGYIFTGYGITWVRQRPGQGLEWIGEIFPRRVATYYSEKFKGRATLTADISSSTAYMELRSLTSEDSAVYFCARDYDPYFALDYWGQGTSVTVSS VL: DIVMTQSHKFMSTSVGDRVSITCKASQDVSTAVDWYQQKPGQSPKLLIYSASYRYTGVPDRFTGSGSGTAFTFTISGEQAEDLAVYYCQQHYSIPFTFGGGTKLEIKR | 0.81
* 53C1_chimeric (antibody, human IgG1, kappa, N297A, V domains shown, Human IgG1 with effector-less Fc mutations, human kappa; also called chimeric 53C1F3D4) VH: QVQLQQSGNELARPGASVRLSCKASGYIFTGYGITWVRQRPGQGLEWIGEIFPRRVNTYYSEKFKGRATLTADISSSTAYMELRSLTSEDSAVYFCARDYDPYFALDYWGQGTSVTVSS VL: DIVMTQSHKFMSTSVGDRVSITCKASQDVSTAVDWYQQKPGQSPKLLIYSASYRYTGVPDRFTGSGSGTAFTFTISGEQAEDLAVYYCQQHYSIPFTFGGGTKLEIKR | 0.75
* 53C1_VH.M1-VL (antibody, human IgG1, kappa, N297A, V domains shown, Chimeric mutant, VH N57S in the entry; human IgG1 effector-less Fc, kappa) VH: QVQLQQSGNELARPGASVRLSCKASGYIFTGYGITWVRQRPGQGLEWIGEIFPRRVSTYYSEKFKGRATLTADISSSTAYMELRSLTSEDSAVYFCARDYDPYFALDYWGQGTSVTVSS VL: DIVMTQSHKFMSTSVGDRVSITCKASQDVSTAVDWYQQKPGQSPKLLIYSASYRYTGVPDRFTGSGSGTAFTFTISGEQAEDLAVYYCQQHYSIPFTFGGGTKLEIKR | 0.87
* 53C1_VH-VL.M1 (antibody, human IgG1, kappa, N297A, V domains shown, Chimeric mutant, VL K24R in the entry; human IgG1 effector-less Fc, kappa) VH: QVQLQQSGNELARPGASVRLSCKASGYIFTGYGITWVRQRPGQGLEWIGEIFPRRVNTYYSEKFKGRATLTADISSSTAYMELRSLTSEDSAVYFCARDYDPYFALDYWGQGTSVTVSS VL: DIVMTQSHKFMSTSVGDRVSITCRASQDVSTAVDWYQQKPGQSPKLLIYSASYRYTGVPDRFTGSGSGTAFTFTISGEQAEDLAVYYCQQHYSIPFTFGGGTKLEIKR | 0.76

Data origin, for the record: patent US20220135687A1
